Experimental System: T1, TDRD7 L2 (Mus musculus, UniProt Q8K1H1 222-291)
T1 sequence: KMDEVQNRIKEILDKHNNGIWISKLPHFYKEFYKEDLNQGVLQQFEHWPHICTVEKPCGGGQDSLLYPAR
Assay Info: ELISA

Binder: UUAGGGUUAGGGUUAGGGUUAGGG (structured_RNA) [TERRA G4 RNA]
binding result: binds
--
Binder: GGUCCGCAGCCGAGUCCGGGUCCG (ssRNA) [Cluster G4-1 mut RNA]
binding result: no binding
--
Binder: UUACCGUUACCGUUACCGUUACCG (ssRNA) [TERRA G4 mut RNA]
binding result: no binding
--
Binder: GGUGGGCAGGGGAGUGGGGGUGGG (structured_RNA) [Cluster G4-1 RNA]
binding result: binds
